# Assay system: Adenosine receptors; A2b & A3 (Homo sapiens) (UniProt P29275+P0DMS8)
# Assay overview: Selectivity ratio of hA3 to hA2B
# Type: protein assay
Recorded endpoint: Ratio

> print(dat)
                            chemical.smiles  recorded.endpoint  result.number
1  CCCn1c(=O)c2nc(-c3ccc(OCC(=O)Nc4ccc(I)cc4)cc3)[nH]c2n(CCC)c1=O              Ratio            600
2  CCCn1c(=O)c2nc(-c3ccc(OCC(=O)Nc4cccc(C(C)=O)c4)cc3)[nH]c2n(CCC)c1=O              Ratio             72
3  CCCn1c(=O)c2nc(-c3ccc(OCC(=O)Nc4ccc([N+](=O)[O-])cc4)cc3)[nH]c2n(CCC)c1=O              Ratio             91
4  CCCn1c(=O)c2nc(-c3ccc(OCC(=O)Nc4ccc(Br)cc4)cc3)[nH]c2n(CCC)c1=O              Ratio            980
5  O=C(O)/C=C/c1ccc(-c2nc3c(=O)n(CC4CCCCC4)c(=O)n(CC4CCCCC4)c3[nH]2)cc1              Ratio            4.6
6  C=CCn1c(=O)c2nc(-c3ccc(OCC(=O)O)cc3)[nH]c2n(CC=C)c1=O              Ratio            5.8

(A) CCCn1c(=O)c2nc(-c3ccc(OCC(=O)Nc4ccccc4)cc3)[nH]c2n(CCC)c1=O
(B) CCCn1c(=O)c2nc(-c3ccc(OCC(=O)Nc4ccc(C(C)=O)cc4)cc3)[nH]c2n(CCC)c1=O
Between the two listed entries A and B , which has its Ratio at the higher number? API: response body contains the label of the selected item.
B
(B: 170, A: 93)

(a) CCCn1c(=O)c2nc(-c3ccc(OCC(=O)NN4C(=O)C(C)=C(C)C4=O)cc3)[nH]c2n(CCC)c1=O
(b) CCCn1c(=O)c2nc(-c3ccc(OCC(=O)Nc4ccc(F)cc4)cc3)[nH]c2n(CCC)c1=O
(c) CCCCn1c(=O)c2nc(-c3ccc(OCC(=O)O)cc3)[nH]c2n(CCCC)c1=O
(d) CCCn1c(=O)c2nc(-c3ccc(OCC(=O)Nc4ccc(Cl)cc4)cc3)[nH]c2n(CCC)c1=O
(e) CCCn1c(=O)c2nc(-c3ccc(OCC(=O)Nc4ccc(C(=O)OC)cc4)cc3)[nH]c2n(CCC)c1=O
Please list these in order of increasing Ratio. Thank you! In plain terms: list the labels in the order you were asked to.
c, a, e, b, d

====

# Assay system: Adenosine receptor A3 (Homo sapiens)
# Sequence (P0DMS8 whole entry): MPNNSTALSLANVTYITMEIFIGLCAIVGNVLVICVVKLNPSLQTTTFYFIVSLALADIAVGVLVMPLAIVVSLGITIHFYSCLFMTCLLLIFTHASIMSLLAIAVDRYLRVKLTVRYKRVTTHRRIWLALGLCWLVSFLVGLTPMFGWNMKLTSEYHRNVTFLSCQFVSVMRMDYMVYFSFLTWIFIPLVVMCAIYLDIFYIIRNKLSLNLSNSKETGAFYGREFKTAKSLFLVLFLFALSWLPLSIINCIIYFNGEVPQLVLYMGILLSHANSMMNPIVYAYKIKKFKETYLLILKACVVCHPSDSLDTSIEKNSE
# Assay overview: biochemical
# Description: Antagonist activity against human adenosine A3 receptor expressed in HEK cells in presence of [125]IAB-MECA or [125I]IABA radioligand.
Recorded endpoint: Ki

Reported Ki for `CCCn1c(=O)c2[nH]c(-c3ccc(OCC(=O)Nc4ccc(C(=O)O)cc4)cc3)nc2n(CCC)c1=O` : what is it?
> 5 µM

====

# Assay system: Adenosine receptor A2a (Homo sapiens, UniProt P29274)
# Sequence (P29274 whole entry): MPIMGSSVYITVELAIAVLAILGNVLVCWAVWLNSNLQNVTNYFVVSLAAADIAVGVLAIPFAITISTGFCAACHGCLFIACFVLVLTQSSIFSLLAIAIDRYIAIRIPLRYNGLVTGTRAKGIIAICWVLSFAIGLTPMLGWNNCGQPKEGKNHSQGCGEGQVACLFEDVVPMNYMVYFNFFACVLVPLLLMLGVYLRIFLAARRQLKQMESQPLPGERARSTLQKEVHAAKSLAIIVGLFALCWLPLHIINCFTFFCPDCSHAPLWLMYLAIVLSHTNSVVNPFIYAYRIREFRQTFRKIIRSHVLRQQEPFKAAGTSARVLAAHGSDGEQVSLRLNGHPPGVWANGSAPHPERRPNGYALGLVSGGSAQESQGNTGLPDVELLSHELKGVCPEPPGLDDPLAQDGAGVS
Recorded endpoint: pKi
Value format note: pKi is -log10 of concentration (mol/L); just state the number.

Using the record for `CCCn1c(=O)c2[nH]c(-c3ccc(OCC(=O)Nc4ccc(C(N)=O)cc4)cc3)nc2n(CCC)c1=O` , report its pKi.
7.41

====

# Assay system: Adenosine receptors; A1 & A2b (Homo sapiens) (UniProt P30542+P29275)
# Sequence (P29275 whole entry, looked up, one chain of several): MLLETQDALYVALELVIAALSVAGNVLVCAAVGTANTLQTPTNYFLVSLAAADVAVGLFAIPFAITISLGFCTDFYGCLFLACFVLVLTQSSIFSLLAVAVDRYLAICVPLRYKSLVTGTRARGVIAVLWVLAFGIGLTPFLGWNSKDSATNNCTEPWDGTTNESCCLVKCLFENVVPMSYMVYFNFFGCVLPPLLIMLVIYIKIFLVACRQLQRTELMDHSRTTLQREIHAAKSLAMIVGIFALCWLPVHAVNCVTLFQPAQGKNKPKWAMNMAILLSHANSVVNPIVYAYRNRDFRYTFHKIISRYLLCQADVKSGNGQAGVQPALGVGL
# Assay overview: Selectivity ratio of hA1 to hA2B
# Format: protein assay
Recorded endpoint: Ratio

Below, each entry is followed by its recorded Ratio result.
> print(dat)
                            chemical.smiles                              assay.system  recorded.endpoint  result.number
1  CCCn1c(=O)c2nc(-c3ccc(OCC(=O)Nc4ccccc4C(C)=O)cc3)[nH]c2n(CCC)c1=O  Adenosine receptors; A1 & A2b (Homo sapiens) (UniProt P30542+P29275)              Ratio            120
2  CCCn1c(=O)c2nc(-c3ccc(OCC(=O)Nc4ccc(C(F)(F)F)cc4)cc3)[nH]c2n(CCC)c1=O  Adenosine receptors; A1 & A2b (Homo sapiens) (UniProt P30542+P29275)              Ratio             29
3  CCCn1c(=O)c2nc(-c3ccc(OCC(=O)Nc4cccc(C(C)=O)c4)cc3)[nH]c2n(CCC)c1=O  Adenosine receptors; A1 & A2b (Homo sapiens) (UniProt P30542+P29275)              Ratio             48
4  CCCn1c(=O)c2nc(-c3ccc(OCC(=O)Nc4ccc(C(=O)O)cc4)cc3)[nH]c2n(CCC)c1=O  Adenosine receptors; A1 & A2b (Homo sapiens) (UniProt P30542+P29275)              Ratio             10
5  O=C(O)/C=C/c1ccc(-c2nc3c(=O)n(CC4CCCCC4)c(=O)n(CC4CCCCC4)c3[nH]2)cc1  Adenosine receptors; A1 & A2b (Homo sapiens) (UniProt P30542+P29275)              Ratio             25

(P) CCCCn1c(=O)c2nc(-c3ccc(OCC(=O)O)cc3)[nH]c2n(CCCC)c1=O
(Q) CCCn1c(=O)c2nc(-c3ccc(OCC(=O)N(Cc4ccccc4)Cc4ccccc4)cc3)[nH]c2n(CCC)c1=O
Return label of the item with the larger Ratio. Candidates: P , Q . Indicate your choice by writing its label.
Q
(Q: 70, P: 3.1)

====

# Assay system: Adenosine receptor A2a (Rattus norvegicus)
# Sequence (P30543 whole entry): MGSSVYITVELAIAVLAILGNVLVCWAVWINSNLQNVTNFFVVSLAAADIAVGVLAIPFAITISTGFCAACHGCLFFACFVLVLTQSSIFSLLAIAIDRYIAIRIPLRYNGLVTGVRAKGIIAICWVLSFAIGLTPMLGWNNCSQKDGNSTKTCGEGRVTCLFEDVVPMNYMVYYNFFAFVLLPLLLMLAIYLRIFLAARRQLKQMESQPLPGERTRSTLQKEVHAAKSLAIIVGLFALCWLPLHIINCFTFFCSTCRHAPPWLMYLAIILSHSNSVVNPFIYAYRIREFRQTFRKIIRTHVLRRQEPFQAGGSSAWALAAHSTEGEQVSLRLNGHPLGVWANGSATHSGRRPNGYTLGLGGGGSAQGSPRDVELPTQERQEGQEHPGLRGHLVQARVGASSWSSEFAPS
Recorded endpoint: Ki (nM)
State just the number; it will be interpreted in nM.

What value of Ki has been reported for the following compound? `CCn1c(=O)c2[nH]c(-c3ccc(OCC(=O)Nc4ccc(CC(=O)NCCN)cc4)cc3)nc2n(CC)c1=O`
1370

====

Target sequence: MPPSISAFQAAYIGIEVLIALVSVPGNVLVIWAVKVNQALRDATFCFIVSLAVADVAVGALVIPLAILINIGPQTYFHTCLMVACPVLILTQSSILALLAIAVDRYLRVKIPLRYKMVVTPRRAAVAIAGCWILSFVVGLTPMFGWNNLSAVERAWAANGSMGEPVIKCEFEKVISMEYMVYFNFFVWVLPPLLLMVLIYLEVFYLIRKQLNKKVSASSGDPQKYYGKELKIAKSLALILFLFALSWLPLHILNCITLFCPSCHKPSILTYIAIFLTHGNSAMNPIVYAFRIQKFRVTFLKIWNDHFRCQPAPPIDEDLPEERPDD
Recorded endpoint: pKi
Please express pKi as -log10 of the molar concentration.

Look up pKi for this compound: `CCCn1c(=O)c2[nH]c(-c3ccc(OCC(=O)Nc4ccc(C(=O)O)cc4)cc3)nc2n(CCC)c1=O`
6.79

====

# Assay system: Adenosine receptors; A2b & A3 (Homo sapiens) (UniProt P29275+P0DMS8)
# Assay overview: Selectivity ratio of hA3 to hA2B
# Assay type: protein assay
Recorded endpoint: Ratio

> print(dat)
                            chemical.smiles                              assay.system  recorded.endpoint  result.number
1  CCCn1c(=O)c2nc(-c3ccc(OCC(=O)Nc4ccccc4C(C)=O)cc3)[nH]c2n(CCC)c1=O  Adenosine receptors; A2b & A3 (Homo sapiens) (UniProt P29275+P0DMS8)              Ratio             23

(a) CCCn1c(=O)c2nc(-c3ccc(OCC(=O)N(Cc4ccccc4)Cc4ccccc4)cc3)[nH]c2n(CCC)c1=O
(b) CCCn1c(=O)c2nc(-c3ccc(OCC(=O)Nc4ccc(C(F)(F)F)cc4)cc3)[nH]c2n(CCC)c1=O
Please state the entry with greater Ratio among a and b . Use the label to indicate which entry you chose.
b
(b: 100, a: 29)

====

# Assay system: Adenosine receptors; A1 & A2b (Homo sapiens) (UniProt P30542+P29275)
# Assay overview: Selectivity ratio of hA1 to hA2B
# Assay type: protein assay
Recorded endpoint: Ratio

The cases that follow already have their Ratio on record.
> print(dat)
                            chemical.smiles  result.number
1  CCCn1c(=O)c2nc(-c3ccc(OCC(=O)Nc4ccc(C(C)=O)cc4)cc3)[nH]c2n(CCC)c1=O            110
2  C=CCn1c(=O)c2nc(-c3ccc(OCC(=O)O)cc3)[nH]c2n(CC=C)c1=O             12
3  CCCn1c(=O)c2nc(-c3ccc(OCC(=O)Nc4ccc(Br)cc4)cc3)[nH]c2n(CCC)c1=O             31
4  CCCn1c(=O)c2nc(-c3ccc(OCC(=O)Nc4ccccc4)cc3)[nH]c2n(CCC)c1=O             27
5  CCCn1c(=O)c2nc(-c3ccc(OCC(=O)NN4C(=O)C(C)=C(C)C4=O)cc3)[nH]c2n(CCC)c1=O            110

(I) CCCn1c(=O)c2nc(-c3ccc(OCC(=O)Nc4ccc(C(=O)OC)cc4)cc3)[nH]c2n(CCC)c1=O
(II) CCCn1c(=O)c2nc(-c3ccc(OCC(=O)Nc4ccc(I)cc4)cc3)[nH]c2n(CCC)c1=O
(III) CCCn1c(=O)c2nc(-c3ccc(OCC(=O)Nc4ccc(Cl)cc4)cc3)[nH]c2n(CCC)c1=O
(IV) CCCn1c(=O)c2nc(-c3ccc(OCC(=O)Nc4ccc(F)cc4)cc3)[nH]c2n(CCC)c1=O
(V) CCCn1c(=O)c2nc(-c3ccc(OCC(=O)Nc4ccc([N+](=O)[O-])cc4)cc3)[nH]c2n(CCC)c1=O
Rank ascending by Ratio. Returns: the labels listed in the requested order.
IV, III, V, I, II
